- System: MX1
- assay details: Inhibition of cell proliferation (GI50), CellTiter 96 AQueous One Solution
- Type: cell-based
- setup conditions: Homo sapiens; MX1 cells, 48 h incubation; dose for 50% inhibition of cell proliferation
Measured GI50 accompanies every entry in the list below.
measure name: GI50 (nM)

>  <entry smiles>
Fc1cc(-c2noc(-c3sccc3Cl)n2)ccc1Cl

>  <measure name>
GI50

>  <data value>
899

$$$$
>  <entry smiles>
CN(C)c1cc(-c2noc(-c3occc3Br)n2)ccc1Cl

>  <measure name>
GI50

>  <data value>
210

$$$$
>  <entry smiles>
Nc1cc(-c2noc(-c3sccc3Cl)n2)ccc1Cl

>  <measure name>
GI50

>  <data value>
7000

$$$$
>  <entry smiles>
CN(C)c1cc(-c2noc(-c3sccc3Cl)n2)ccc1Cl

>  <measure name>
GI50

>  <data value>
5000

$$$$
